// data source = BindingDB's records for doi:10.1016/j.bmc.2020.115716

test-method-notes: Inhibition of HCV genotype 5a NS5A infected in Huh7 cells assessed as reduction in viral replication incubated 3 days and measured by bright Glo-luciferase reporter gene assay
pIC50: −log10 of the molar value.
measurement-type: pIC50

Worked cases, answers included:
smiles-string: COC(=O)N[C@H](C(=O)N1CCC[C@H]1c1ncc(C#CC#Cc2ccc(-c3cnc([C@@H]4CCCN4C(=O)[C@H](NC(=O)OC)c4ccccc4)[nH]3)cc2)[nH]1)C(C)C
pIC50: 10.00

smiles-string: COC(=O)N[C@H](C(=O)N1CCC[C@H]1c1ncc(-c2ccc(C#CC#Cc3cnc([C@@H]4CCCN4C(=O)[C@@H](NC(=O)OC)C(C)C)[nH]3)cc2)[nH]1)c1ccccc1
pIC50: 9.70

smiles-string: COC(=O)N[C@H](C(=O)N1CCC[C@H]1c1ncc(-c2ccc(C#CC#Cc3cnc([C@@H]4CCCN4C(=O)[C@H](NC(=O)OC)c4ccccc4)[nH]3)c(N(C)c3ccccc3)c2)[nH]1)C(C)C
pIC50: 10.57

smiles-string: COC(=O)N[C@H](C(=O)N1CCC[C@H]1c1ncc(-c2ccc(C#CC#Cc3cnc([C@@H]4CCCN4C(=O)[C@H](NC(=O)OC)c4ccccc4)[nH]3)c(Sc3ccccc3)c2)[nH]1)C(C)C
pIC50: 10.46

A = COC(=O)N[C@H](C(=O)N1CCC[C@H]1c1ncc(C#CC#Cc2ccc(-c3cnc([C@@H]4CCCN4C(=O)[C@@H](NC(=O)OC)C(C)C)[nH]3)cc2-c2ccc3ccccc3c2)[nH]1)C(C)C
B = COC(=O)N[C@H](C(=O)N1CCC[C@H]1c1ncc(-c2cc(F)c(C#CC#Cc3cnc([C@@H]4CCCN4C(=O)[C@H](NC(=O)OC)c4ccccc4)[nH]3)c(-c3ccccc3)c2)[nH]1)C(C)C
C = COC(=O)N[C@H](C(=O)N1CCC[C@H]1c1ncc(C#CC#Cc2ccc(-c3cnc([C@@H]4CCCN4C(=O)[C@@H](NC(=O)OC)C(C)C)[nH]3)cc2-c2ccccc2)[nH]1)C(C)C
D = COC(=O)N[C@H](C(=O)N1CCC[C@H]1c1ncc(-c2ccc(C#CC#Cc3cnc([C@@H]4CCCN4C(=O)[C@H](NC(=O)OC)c4ccccc4)[nH]3)c(-c3ccc(C(C)(C)C)cc3)c2)[nH]1)C(C)C
Highest pIC50 first, then in falling order down to the smallest. Respond with the label ranking, as requested.
B, C, A, D
(B: 10.59, C: 9.89, A: 9.57, D: 9.16)

----------
test-method-notes: Inhibition of HCV genotype 3a NS5A infected in Huh7 cells assessed as reduction in viral replication incubated 3 days and measured by bright Glo-luciferase reporter gene assay
pIC50: −log10 of the molar value.
measurement-type: pIC50

Example results:
smiles-string: COC(=O)N[C@H](C(=O)N1CCC[C@H]1c1ncc(-c2ccc(C#CC#Cc3cnc([C@@H]4CCCN4C(=O)[C@H](NC(=O)OC)c4ccccc4)[nH]3)c(-c3ccccc3)c2)[nH]1)C(C)C
observed-value: 10.47

smiles-string: COC(=O)N[C@H](C(=O)N1CCC[C@H]1c1ncc(C#CC#Cc2c(C)cc(-c3cnc([C@@H]4CCCN4C(=O)[C@@H](NC(=O)OC)C(C)C)[nH]3)cc2-c2ccccc2)[nH]1)C(C)C
observed-value: 9.44

smiles-string: COC(=O)N[C@H](C(=O)N1CCC[C@H]1c1ncc(-c2ccc(C#CC#Cc3cnc([C@@H]4CCCN4C(=O)[C@H](NC(=O)OC)c4ccccc4)[nH]3)c(-c3ccc(-c4ccccc4)cc3)c2)[nH]1)C(C)C
observed-value: 10.19

a = COC(=O)N[C@H](C(=O)N1CCC[C@H]1c1ncc(-c2ccc(C#CC#Cc3cnc([C@@H]4CCCN4C(=O)[C@@H](NC(=O)OC)C(C)C)[nH]3)cc2)[nH]1)c1ccccc1
b = COC(=O)N[C@H](C(=O)N1CCC[C@H]1c1ncc(-c2ccc(C#CC#Cc3cnc([C@@H]4CCCN4C(=O)[C@H](NC(=O)OC)c4ccccc4)[nH]3)c(-c3cccc(C(C)(C)C)c3)c2)[nH]1)C(C)C
Exercise: compare a and b ; which one has the greater pIC50? Please reply using the label of the selected record.
b
